# testedOn: Recombinant human mPGES-1 (Homo sapiens, UniProt O14684)
# Construct: made in house; host or cells: CHO cells (crude microsomal fractions)
# Sequence (O14684 whole entry): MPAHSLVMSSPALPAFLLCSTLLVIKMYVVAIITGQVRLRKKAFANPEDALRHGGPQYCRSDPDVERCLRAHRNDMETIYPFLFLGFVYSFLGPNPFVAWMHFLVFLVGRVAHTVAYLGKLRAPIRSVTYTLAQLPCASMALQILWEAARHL
# testDetails: In-vitro screening of mPGES-1 inhibitors (inhibition of PGE2 formation from PGH2, HTRF detection)
# Assay type: biochemical
# conditionLabel: 1 μM test compound; mPGES-1 enzyme, crude microsomal fractions; read-out: Percentage inhibition at 1 μM
molecules and their reported inhibition at 1 µM
# value in %; strip the unit string

Study these solved cases before continuing.
| molecularString | inhibition at 1 µM (%) |
| --- | --- |
| CC(C)(C)C(=O)NCc1cc(-c2nn(-c3ccc(Cl)cc3)c(=O)[nH]2)c(Cl)cc1F | 100 |
| Cc1cc(-n2nc(-c3cc(CNC(=O)C(C)C)ccc3Cl)[nH]c2=O)ccc1Cl | 99.7 |
| CC(C)(C)C(=O)NCc1cc(-n2nc(-c3ccc(C#CC4CC4)cc3)[nH]c2=O)c(Cl)cc1F | 95.1 |
| COc1cc(-n2nc(-c3c(C)cccc3Cl)[nH]c2=O)ccc1-c1nc(-c2ccc(Cl)cc2)no1 | 81 |
| O=c1[nH]c(-c2c(F)cccc2Cl)nn1-c1ccc(C#Cc2ccc(C(F)(F)F)cc2Cl)cc1 | 89.1 |
| CC(C)(CF)C(=O)NCc1cc(-c2nn(-c3ccc(Cl)cc3)c(=O)[nH]2)c(Cl)cc1F | 91.5 |

Input: # return recorded inhibition at 1 µM for entry COCC(C)(C)C(=O)NCc1ccc(Cl)c(-c2nn(-c3ccc(C(F)(F)F)cc3)c(=O)[nH]2)c1
Output: 92.2

###

# testedOn: Recombinant human mPGES-1 (Homo sapiens)
# Construct: made in house; host or cells: CHO cells (crude microsomal fractions)
# testDetails: In-vitro screening of mPGES-1 inhibitors (inhibition of PGE2 formation from PGH2, HTRF detection)
# Assay type: biochemical
# conditionLabel: 1 μM test compound; mPGES-1 enzyme, crude microsomal fractions; read-out: Percentage inhibition at 1 μM
observationType: inhibition at 1 µM (%)
Reply numerically in %, unit not repeated.

Input: Respond only with inhibition at 1 µM recorded for CC(C)(C)C(=O)NCc1cc(-c2nn(-c3ccc(C(F)(F)F)cc3)c(=O)[nH]2)c(Cl)cc1F
Output: 99.1

Input: Fill in inhibition at 1 µM for record CC(C)C(=O)NCc1ccc(Cl)c(-n2nc(-c3ccc(C#CC(C)(C)C)cc3)[nH]c2=O)c1
Output: 99.2

Input: Identify measured inhibition at 1 µM corresponding to COc1cc(-c2nn(-c3c(Cl)cccc3Cl)c(=O)[nH]2)ccc1C(=O)Nc1cc(C(F)(F)F)ccc1F
Output: 42.7

Input: Please report inhibition at 1 µM for the following compound: CC(C)(C)C(=O)NCc1ccc(Cl)c(-c2nn(C3CCCCC3)c(=O)[nH]2)c1F
Output: 19.9

Input: Kindly indicate its recorded inhibition at 1 µM. Item: COCCCNc1nc(-c2c(F)cccc2Cl)nn1-c1ccc(Br)cc1
Output: 2.34

Input: Read the entry O=C(NCc1ccc(Cl)c(-c2nn(-c3ccc(C(F)(F)F)cc3)c(=O)[nH]2)c1)c1ccccc1F and write its reported inhibition at 1 µM.
Output: 96.9

Input: Name the recorded inhibition at 1 µM of the item [O-][S+]1NC(c2c(F)cccc2Cl)=NN1c1ccc(Br)cc1 (centres unmarked) in your answer.
Output: 9.32

Input: Give inhibition at 1 µM for the following compound: CC(C)(C)C(=O)NCc1ccc(Cl)c(-c2nn(C(C)(C)C)c(=O)[nH]2)c1
Output: 16.3

Reference for the values: patent US10821100B2
